- Tested on: field poppy (Papaver rhoeas)
- TEST_DESCRIPTION: Test D controlled growth environment herbicide test, pre- and postemergence
- Assay type: in vivo
- CONDITIONS_USED: Postemergence, 31 g ai/ha; scale 0 to 100 (0 no effect, 100 complete control)
Define the label as 1 (yes) when Field Poppy plant response rating is strictly less than 70 and as 0 (no) in all remaining cases.

Worked cases, answers included:
{"columns": ["COMPOUND_STRUCTURE_STRING", "ASSIGNED_CLASS"],
 "data": [
  ["Cc1nn(C)c(=O)c(-c2ccc(F)c3ccccc23)c1O", "1 (yes)"],
  ["Cc1nn(C)c(=O)c(-c2c(C)sc3c(C)cc(Cl)cc23)c1O", "0 (no)"],
  ["Cc1nn(C)c(=O)c(-c2cccc3ccccc23)c1O", "1 (yes)"],
  ["Cc1cc2ccccc2c(-c2c(O)c(C)nn(C)c2=O)c1C", "0 (no)"],
  ["COC(=O)Oc1c(C)nn(C)c(=O)c1-c1c(C)sc2ccc(C)cc12", "1 (yes)"]
]}

Please examine the following record next.
Exam item: I'd appreciate it if you could check whether "Cn1nc(Br)c(O)c(-c2cccc3ccccc23)c1=O" has Field Poppy plant response rating smaller than 70.
Marked response: 1 (yes)
